System: Sir-13
Assay: Whole plant sugarbeet response to postemergence ALS-inhibiting herbicides
Type: in vivo, Beta vulgaris L.
Settings: Sir-13 whole plant, postemergence, relative to Rel-1
For each of the molecules below, state its R/S.
One number for each entry, in X.

Worked cases, R/S given:
Entry COc1nc(C)nc(NC(=O)NS(=O)(=O)c2ccccc2Cl)n1 ; R/S = 1

Entry Cc1cc(C)nc(NC(=O)NS(=O)(=O)c2ccccc2C(=O)O)n1 ; R/S = 1

Entry COCc1cnc(C2=NC(C)(C(C)C)C(=O)N2)c(C(=O)O)c1 (stereo not shown) ; R/S = 130

Next:
Entry CCc1cnc(C2=NC(C)(C(C)C)C(=O)N2)c(C(=O)O)c1 (stereo not shown) ; R/S = 100
